Answer each item with its documented % I (1 μM).
Target: canine TRPM8 (Canis lupus familiaris, UniProt Q1A7N1)
Construct: expressed in transfected cells
Sequence (Q1A7N1 1-1104): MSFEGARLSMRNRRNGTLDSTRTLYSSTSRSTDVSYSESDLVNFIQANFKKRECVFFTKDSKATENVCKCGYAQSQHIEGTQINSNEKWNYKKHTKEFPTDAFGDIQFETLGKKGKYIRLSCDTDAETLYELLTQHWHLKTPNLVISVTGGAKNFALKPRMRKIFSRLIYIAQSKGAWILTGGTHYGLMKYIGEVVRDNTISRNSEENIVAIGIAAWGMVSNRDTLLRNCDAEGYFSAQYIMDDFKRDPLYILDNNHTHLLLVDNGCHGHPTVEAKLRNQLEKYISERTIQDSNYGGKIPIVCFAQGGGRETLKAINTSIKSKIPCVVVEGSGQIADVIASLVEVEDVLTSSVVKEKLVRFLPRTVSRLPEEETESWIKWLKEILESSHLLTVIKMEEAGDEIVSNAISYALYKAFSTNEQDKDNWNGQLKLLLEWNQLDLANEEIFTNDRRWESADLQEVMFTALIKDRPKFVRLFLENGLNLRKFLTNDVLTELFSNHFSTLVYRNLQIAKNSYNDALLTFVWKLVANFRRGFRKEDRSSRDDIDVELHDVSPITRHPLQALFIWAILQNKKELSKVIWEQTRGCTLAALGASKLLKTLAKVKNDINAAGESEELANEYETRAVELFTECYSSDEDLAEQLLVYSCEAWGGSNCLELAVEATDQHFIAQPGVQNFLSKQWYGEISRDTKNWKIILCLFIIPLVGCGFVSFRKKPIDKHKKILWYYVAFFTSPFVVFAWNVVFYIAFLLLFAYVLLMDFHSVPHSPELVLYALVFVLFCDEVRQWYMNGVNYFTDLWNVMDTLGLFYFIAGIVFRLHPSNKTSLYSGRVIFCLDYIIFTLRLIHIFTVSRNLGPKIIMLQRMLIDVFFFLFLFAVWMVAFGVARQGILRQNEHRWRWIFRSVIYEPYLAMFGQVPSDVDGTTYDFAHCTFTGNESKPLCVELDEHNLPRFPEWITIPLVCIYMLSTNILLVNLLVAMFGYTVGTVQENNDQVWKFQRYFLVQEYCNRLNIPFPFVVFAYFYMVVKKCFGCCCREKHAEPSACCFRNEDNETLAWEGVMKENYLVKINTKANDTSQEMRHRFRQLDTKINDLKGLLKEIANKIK
Assay: In vitro canine TRPM8 functional assay (Ca2+-sensitive dye, FLIPR/FDSS, icilin activation)
Type: cell-based
Settings: 1 μM compound; HEK293 cells expressing canine TRPM8, icilin activation
Give bare numbers, in %.

Reference set, count: 3
CCOP(=O)(OCC)C(Cc1ccccc1)c1cc2ccccc2s1 (stereo not shown)
92
CC(C)OP(=O)(OC(C)C)C(Cc1ccc(F)c(F)c1)c1oc2ccccc2c1Br (stereo not shown)
103
CCOP(=O)(OCC)C(Cc1ccc(C(F)(F)F)cc1)c1cc2ccccc2s1 (stereo not shown)
96

Record % I (1 μM) per entry; entries follow.
1. CCOP(=O)(OCC)C(Cc1ccc(C(F)(F)F)c(F)c1)c1cc2ccccc2s1 (stereo not shown)
2. CCOP(=O)(OCC)C(Cc1ccc(F)c(F)c1)c1c(C)c2ccccc2[s+]1[O-] (stereo not shown)
3. CCOP(=O)(OCC)C(Cc1ccccc1Br)c1sc2ccccc2c1C (stereo not shown)
4. CCOP(=O)(OCC)C(Cc1cc2c(cc1Cl)OCO2)c1sc2ccccc2c1C (stereo not shown)
5. CC(C)OP(=O)(OC(C)C)C(Cc1cc(F)cc(F)c1)c1sc2ccccc2c1Br (stereo not shown)

A)
1: 100; 2: 23; 3: 100; 4: 98; 5: 103
